Every entry's value here was drawn from paper PMC9866191.

- System: NCI-H226
- test_method_notes: NCI-60 one-dose screen
- Format: cell-based
- recorded_conditions: Homo sapiens; NCI-H226, Non-small cell lung panel; single dose 10^−5 M; read-out: Growth inhibition %
inhibition at 10 µM values by entry
Give the number; % is assumed, so skip it.

Worked cases, inhibition at 10 µM given:
compound	units_label	inhibition at 10 µM
COc1ccc2nc3ccccc3c(NCc3ccccc3)c2c1 [Compound 25, Benzyl-(2-methoxyacridin-9-yl)-amine]	%	65.6
COc1ccc2nc3ccccc3c(NCc3ccc(F)cc3)c2c1 [Compound 28]	%	70
Cc1ccccc1CNc1c2ccccc2nc2ccccc12 [Compound 2, Acridin-9-yl-(2-methylbenzyl)-amine]	%	68.5
COc1ccc(CNc2c3ccccc3nc3ccccc23)cc1 [Compound 7, Acridin-9-yl-(4-methoxybenzyl)-amine]	%	48.6
c1ccc(CCNc2c3ccccc3nc3ccccc23)cc1 [Compound 23, Acridin-9-yl-phenethyl-amine]	%	43.7
COc1ccc2nc3ccccc3c(NCc3ccc(Cl)cc3)c2c1 [Compound 29]	%	51.2
Cc1ccc2nc3ccccc3c(NCc3ccccc3)c2c1 [Compound 30, Benzyl-(2-methylacridin-9-yl)-amine]	%	50.2

Please turn your attention to the following entry.
[Q] State its inhibition at 10 µM on NCI-H226: Fc1ccc(CNc2c3ccccc3nc3ccccc23)cc1F [Compound 22, Acridin-9-yl-(3,4-difluorobenzyl)-amine]
[A] 52.4

###

- Tested on: CAKI-1
- test_method_notes: NCI-60 one-dose screen
- Format: cell-based
- recorded_conditions: Homo sapiens; CAKI-1, Renal Cancer panel; single dose 10^−5 M; read-out: Growth inhibition %
Reported inhibition at 10 µM values for a set of molecules

Example cases with answers are listed next.
molecule	inhibition at 10 µM
COc1ccc(CNc2c3ccccc3nc3ccccc23)cc1 [Compound 7, Acridin-9-yl-(4-methoxybenzyl)-amine]	70.7%
c1coc(CNc2c3ccccc3nc3ccccc23)c1 [Compound 14, Acridin-9-yl-furan-2-ylmethyl-amine]	59%
Clc1ccccc1CNc1c2ccccc2nc2ccccc12 [Compound 11, Acridin-9-yl-(2-chlorobenzyl)-amine]	74.8%

Now turn to the next molecule.
[Q] Form field: reported inhibition at 10 µM of COc1cccc(CNc2c3ccccc3nc3ccccc23)c1 [Compound 6, Acridin-9-yl-(3-methoxybenzyl)-amine]
[A] 64.3%

###

Overview of recorded inhibition at 10 µM for various molecules
- Tested on: COLO 205
- test_method_notes: NCI-60 one-dose screen
- Format: cell-based
- recorded_conditions: Homo sapiens; COLO 205, Colon Cancer panel; single dose 10^−5 M; read-out: Growth inhibition %
Note: unit % is implicit; provide only the numeric part.

Observe how each entry below is paired with its result.
molecule	inhibition at 10 µM / %
Fc1ccc(CNc2c3ccccc3nc3ccccc23)c(F)c1 [Compound 21, Acridin-9-yl-(2,4-difluorobenzyl)-amine]	73.2
Cc1ccc2nc3ccccc3c(NCc3ccc(Cl)cc3)c2c1 [Compound 31]	153

[Q] Name the reported inhibition at 10 µM value associated with the molecule COc1ccc2nc3ccccc3c(NCc3ccc(C)cc3)c2c1 [Compound 26]
[A] 141

[Q] Which value of inhibition at 10 µM has been reported for COc1cccc(CNc2c3ccccc3nc3ccccc23)c1OC [Compound 16, Acridin-9-yl-(2,3-dimethoxybenzyl)-amine] in the records?
[A] 78.5

###

- Tested on: SR
- test_method_notes: NCI-60 one-dose screen
- Type: cell-based
- recorded_conditions: Homo sapiens, Leukemia panel, single dose 10^−5 M, read-out: Growth inhibition %
reported_endpoint: inhibition at 10 µM (%)
Please respond with the number in % and leave the unit unwritten.

compound	measured_value
Fc1ccc(CNc2c3ccccc3nc3ccccc23)cc1F [Compound 22, Acridin-9-yl-(3,4-difluorobenzyl)-amine]	83
COc1ccc2nc3ccccc3c(NCc3ccc(C)cc3)c2c1 [Compound 26]	113
Clc1cccc(CNc2c3ccccc3nc3ccccc23)c1 [Compound 12, Acridin-9-yl-(3-chlorobenzyl)-amine]	104

[Q] Find the recorded inhibition at 10 µM belonging to COc1ccc(CNc2c3ccccc3nc3ccccc23)cc1OC [Compound 18, Acridin-9-yl-(3,4-dimethoxybenzyl)-amine] and report it.
[A] 91.4

[Q] Record request: inhibition at 10 µM value, item COc1ccc(CNc2c3ccccc3nc3ccccc23)cc1 [Compound 7, Acridin-9-yl-(4-methoxybenzyl)-amine]
[A] 93

[Q] Recorded inhibition at 10 µM for COc1ccc2nc3ccccc3c(NCc3ccc(F)cc3)c2c1 [Compound 28] , please?
[A] 101

[Q] Which inhibition at 10 µM value belongs to c1csc(-c2ccc(CNc3c4ccccc4nc4ccccc34)cc2)c1 [Compound 24] ?
[A] 144

[Q] Which value of inhibition at 10 µM has been reported for Cc1ccc2nc3ccccc3c(NCc3ccccc3)c2c1 [Compound 30, Benzyl-(2-methylacridin-9-yl)-amine] in the records?
[A] 95.9

[Q] Record request: inhibition at 10 µM value, item COc1cccc(CNc2c3ccccc3nc3ccccc23)c1 [Compound 6, Acridin-9-yl-(3-methoxybenzyl)-amine]
[A] 91.6
